Listed below: Recoding rate (%) values for each entry.
Tested on: TCG codon, mammalian cells
assay.protocol: TCG codon recoding efficiency of all amino acids (Table 1)
Format: cell-based
measurement.setup: TCG codon recoding of the unnatural amino acid with the aaRS and mutation of the same table line; numeric values

[
  {
    "molecule": "N[C@@H](Cc1c[nH]c2ncccc12)C(=O)O",
    "Recoding rate (%)": "22%"
  },
  {
    "molecule": "[N-]=[N+]=Nc1ccc(C[C@H](N)C(=O)O)cc1 [compound 360]",
    "Recoding rate (%)": "79%"
  },
  {
    "molecule": "N[C@@H](Cc1cccnc1)C(=O)O",
    "Recoding rate (%)": "83%"
  },
  {
    "molecule": "CCCCCC[C@H](N)C(=O)O",
    "Recoding rate (%)": "88%"
  },
  {
    "molecule": "CCCSC(=O)CCC(=O)NCCCC[C@H](N)C(=O)O",
    "Recoding rate (%)": "55%"
  },
  {
    "molecule": "N[C@@H](Cc1csc2ccccc12)C(=O)O [compound 299]",
    "Recoding rate (%)": "84%"
  },
  {
    "molecule": "Cn1cc(C[C@H](N)C(=O)O)c2ccccc21",
    "Recoding rate (%)": "63%"
  },
  {
    "molecule": "C#CCOc1ccc(C[C@H](N)C(=O)O)cc1",
    "Recoding rate (%)": "78%"
  },
  {
    "molecule": "[N-]=[N+]=Nc1ccc(C[C@H](N)C(=O)O)cc1 [compound 298]",
    "Recoding rate (%)": "88%"
  },
  {
    "molecule": "N[C@@H](Cc1ccc(OS(=O)(=O)O)cc1)C(=O)O",
    "Recoding rate (%)": "85%"
  },
  {
    "molecule": "N[C@@H](Cc1c[nH]c2c(F)cccc12)C(=O)O",
    "Recoding rate (%)": "74%"
  },
  {
    "molecule": "N#Cc1ccc2c(C[C@H](N)C(=O)O)c[nH]c2c1",
    "Recoding rate (%)": "84%"
  },
  {
    "molecule": "N[C@@H](Cc1cc(Br)ccc1Cl)C(=O)O",
    "Recoding rate (%)": "75%"
  },
  {
    "molecule": "N[C@@H](Cc1ccsc1)C(=O)O",
    "Recoding rate (%)": "64%"
  },
  {
    "molecule": "N[C@@H](Cc1ccco1)C(=O)O",
    "Recoding rate (%)": "43%"
  },
  {
    "molecule": "COc1ccc2c(C[C@H](N)C(=O)O)c[nH]c2c1 [compound 294]",
    "Recoding rate (%)": "63%"
  },
  {
    "molecule": "CC(=O)c1ccc(C[C@H](N)C(=O)O)cc1 [compound 305]",
    "Recoding rate (%)": "92%"
  },
  {
    "molecule": "N[C@@H](Cc1cccc(I)c1)C(=O)O [compound 329]",
    "Recoding rate (%)": "56%"
  },
  {
    "molecule": "N[C@@H](Cc1ccc(I)cc1)C(=O)O [compound 370]",
    "Recoding rate (%)": "64%"
  },
  {
    "molecule": "N[C@@H](Cc1c[nH]c2cc(Br)ccc12)C(=O)O",
    "Recoding rate (%)": "73%"
  },
  {
    "molecule": "COc1ccc(C[C@H](N)C(=O)O)cc1 [compound 308]",
    "Recoding rate (%)": "68%"
  },
  {
    "molecule": "COc1ccc([N+](=O)[O-])c2c1CCN2C(=O)CC[C@H](N)C(=O)O",
    "Recoding rate (%)": "43%"
  },
  {
    "molecule": "N[C@@H](Cc1ccc(OCc2ccccc2)cc1)C(=O)O",
    "Recoding rate (%)": "46%"
  },
  {
    "molecule": "N[C@@H](Cc1ccc(Br)cc1)C(=O)O [compound 328]",
    "Recoding rate (%)": "51%"
  },
  {
    "molecule": "N[C@@H](Cc1c[nH]c2cc(Cl)ccc12)C(=O)O",
    "Recoding rate (%)": "73%"
  },
  {
    "molecule": "CCCCCCCC[C@H](N)C(=O)O",
    "Recoding rate (%)": "85%"
  },
  {
    "molecule": "N#Cc1cccc2c(C[C@H](N)C(=O)O)c[nH]c12",
    "Recoding rate (%)": "69%"
  },
  {
    "molecule": "N[C@@H](Cc1cc(F)c(F)cc1F)C(=O)O",
    "Recoding rate (%)": "83%"
  },
  {
    "molecule": "N[C@@H](Cc1ccc(B(O)O)cc1)C(=O)O",
    "Recoding rate (%)": "66%"
  },
  {
    "molecule": "N[C@@H](Cc1ccc(C(=O)c2ccccc2)cc1)C(=O)O [compound 339]",
    "Recoding rate (%)": "68%"
  },
  {
    "molecule": "CN(C)c1cccc2c(S(=O)(=O)NC[C@H](N)C(=O)O)cccc12",
    "Recoding rate (%)": "73%"
  },
  {
    "molecule": "N[C@@H](Cc1ccc(I)cc1)C(=O)O [compound 331]",
    "Recoding rate (%)": "43%"
  },
  {
    "molecule": "Cc1cccc2c(C[C@H](N)C(=O)O)c[nH]c12",
    "Recoding rate (%)": "69%"
  },
  {
    "molecule": "N[C@@H](Cc1ccc(OCCBr)cc1)C(=O)O",
    "Recoding rate (%)": "60%"
  },
  {
    "molecule": "CCCCCCC[C@H](N)C(=O)O",
    "Recoding rate (%)": "92%"
  },
  {
    "molecule": "Cn1cncc1C[C@H](N)C(=O)O",
    "Recoding rate (%)": "85%"
  },
  {
    "molecule": "CCCSC(=O)CCCC(=O)NCCCC[C@H](N)C(=O)O",
    "Recoding rate (%)": "57%"
  },
  {
    "molecule": "COc1ccc(C[C@H](N)C(=O)O)cc1 [compound 400]",
    "Recoding rate (%)": "92%"
  },
  {
    "molecule": "N[C@@H](Cc1ccc(O)c(O)c1)C(=O)O",
    "Recoding rate (%)": "48%"
  },
  {
    "molecule": "COc1ccc2[nH]cc(C[C@H](N)C(=O)O)c2c1",
    "Recoding rate (%)": "85%"
  },
  {
    "molecule": "CC(=O)c1ccc(C[C@H](N)C(=O)O)cc1 [compound 359]",
    "Recoding rate (%)": "78%"
  },
  {
    "molecule": "N#Cc1ccc(C[C@H](N)C(=O)O)cc1",
    "Recoding rate (%)": "45%"
  },
  {
    "molecule": "C=CCCCC[C@H](N)C(=O)O",
    "Recoding rate (%)": "81%"
  }
]
